Kindly state inhibition at 1 µM for each of the entries shown.
target: hERG (KCNH2) (Homo sapiens, UniProt Q12809); test: Inhibition of human ERG expressed in CHO cells assessed as reduction in channel current at holding potential of 0 mV at 1 uM by electrophysiological method; type: cell-based; conditions: CHO cells expressing human ERG
Sequence (Q12809 whole entry): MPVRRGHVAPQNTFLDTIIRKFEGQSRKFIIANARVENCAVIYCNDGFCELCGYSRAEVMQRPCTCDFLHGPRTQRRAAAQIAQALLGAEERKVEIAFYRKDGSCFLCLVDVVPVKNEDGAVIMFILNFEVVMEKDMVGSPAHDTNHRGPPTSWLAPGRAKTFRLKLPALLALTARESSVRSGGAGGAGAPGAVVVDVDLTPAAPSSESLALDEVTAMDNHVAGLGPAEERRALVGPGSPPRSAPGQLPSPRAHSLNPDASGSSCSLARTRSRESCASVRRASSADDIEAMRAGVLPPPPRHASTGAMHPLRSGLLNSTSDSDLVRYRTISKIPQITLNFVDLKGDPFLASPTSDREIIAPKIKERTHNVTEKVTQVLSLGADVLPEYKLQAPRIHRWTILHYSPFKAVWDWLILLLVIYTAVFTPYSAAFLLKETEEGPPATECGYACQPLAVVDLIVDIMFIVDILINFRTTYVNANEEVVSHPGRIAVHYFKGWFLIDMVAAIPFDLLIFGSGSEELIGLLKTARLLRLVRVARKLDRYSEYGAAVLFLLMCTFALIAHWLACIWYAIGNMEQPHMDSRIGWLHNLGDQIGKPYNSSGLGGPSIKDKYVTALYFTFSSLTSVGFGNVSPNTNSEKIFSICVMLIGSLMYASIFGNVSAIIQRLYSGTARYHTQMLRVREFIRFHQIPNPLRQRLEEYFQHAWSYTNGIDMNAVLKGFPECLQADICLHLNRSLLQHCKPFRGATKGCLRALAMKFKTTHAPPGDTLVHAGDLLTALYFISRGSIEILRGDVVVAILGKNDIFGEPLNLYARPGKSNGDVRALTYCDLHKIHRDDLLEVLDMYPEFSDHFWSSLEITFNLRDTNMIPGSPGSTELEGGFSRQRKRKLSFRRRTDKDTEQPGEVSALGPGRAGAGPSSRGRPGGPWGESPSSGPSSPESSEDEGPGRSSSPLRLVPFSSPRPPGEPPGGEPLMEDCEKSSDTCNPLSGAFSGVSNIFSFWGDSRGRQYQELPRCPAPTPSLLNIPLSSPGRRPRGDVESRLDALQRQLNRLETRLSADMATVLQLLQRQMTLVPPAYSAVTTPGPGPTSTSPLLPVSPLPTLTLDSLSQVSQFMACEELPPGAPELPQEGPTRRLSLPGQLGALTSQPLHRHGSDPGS
One number for each entry, in %.

Sample records with inhibition at 1 µM:
INSERT INTO measurements (molecular_string, readout_type, unit_string, reported_measurement) VALUES
  ('O=C1CCc2ccc(OCCCCN3CCN(c4cccc5c4ccn5Cc4cccc(Cl)c4)CC3)cc2N1', 'inhibition at 1 µM', '%', 9),
  ('O=C1CCc2ccc(OCCCCN3CCN(c4cccc5c4ccn5Cc4ccccc4)CC3)cc2N1', 'inhibition at 1 µM', '%', 14),
  ('O=C1CCc2ccc(OCCCCN3CCN(c4cccc5c4ccn5S(=O)(=O)c4ccccc4)CC3)cc2N1', 'inhibition at 1 µM', '%', 13);

Continue with the molecule presented below.
Can you look up the measured inhibition at 1 µM of O=C1CCc2ccc(OCCCCN3CCN(c4cccc5c4ccn5Cc4cccc(F)c4)CC3)cc2N1 for me? 18

###

assay: Aqueous solubility in simulated intestinal fluid at 2 x 10^-4 M; type: physicochemical
readout.type: solubility at 200 µM
Just so you know, I need the unit written after the number.

Can you look up the measured solubility at 200 µM of NC(=O)c1ccccc1OCCCN1CCN(c2cccc3c2ccn3S(=O)(=O)c2ccccc2)CC1 for me? 97.3 µM

###

target: D(3) dopamine receptor (Homo sapiens, UniProt P35462); assay: Agonist activity at human recombinant dopmaine D3 receptor expressed in CHOK1 cells assessed as effect on cAMP levels
Sequence (P35462 whole entry): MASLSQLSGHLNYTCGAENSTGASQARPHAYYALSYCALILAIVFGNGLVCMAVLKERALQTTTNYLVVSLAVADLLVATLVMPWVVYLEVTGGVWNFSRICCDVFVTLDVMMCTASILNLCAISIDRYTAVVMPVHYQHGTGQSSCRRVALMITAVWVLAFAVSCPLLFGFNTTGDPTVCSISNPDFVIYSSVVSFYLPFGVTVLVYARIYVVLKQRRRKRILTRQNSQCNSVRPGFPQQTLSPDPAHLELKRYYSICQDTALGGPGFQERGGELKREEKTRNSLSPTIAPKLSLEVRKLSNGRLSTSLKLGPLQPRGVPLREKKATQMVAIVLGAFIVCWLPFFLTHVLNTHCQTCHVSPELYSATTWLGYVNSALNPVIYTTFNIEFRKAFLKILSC
readout.type: EC50

Can you look up the measured EC50 of NC(=O)c1ccccc1OCCCN1CCN(c2cccc3c2ccn3S(=O)(=O)c2ccccc2)CC1 for me? > 1000 nM

###

biological target: Muscarinic acetylcholine receptor M1 (Homo sapiens) (UniProt P11229); experiment: Inhibition of muscarinic M1 receptor (unknown origin) assessed as reduction in control ligand binding at 1 uM
Sequence (P11229 whole entry): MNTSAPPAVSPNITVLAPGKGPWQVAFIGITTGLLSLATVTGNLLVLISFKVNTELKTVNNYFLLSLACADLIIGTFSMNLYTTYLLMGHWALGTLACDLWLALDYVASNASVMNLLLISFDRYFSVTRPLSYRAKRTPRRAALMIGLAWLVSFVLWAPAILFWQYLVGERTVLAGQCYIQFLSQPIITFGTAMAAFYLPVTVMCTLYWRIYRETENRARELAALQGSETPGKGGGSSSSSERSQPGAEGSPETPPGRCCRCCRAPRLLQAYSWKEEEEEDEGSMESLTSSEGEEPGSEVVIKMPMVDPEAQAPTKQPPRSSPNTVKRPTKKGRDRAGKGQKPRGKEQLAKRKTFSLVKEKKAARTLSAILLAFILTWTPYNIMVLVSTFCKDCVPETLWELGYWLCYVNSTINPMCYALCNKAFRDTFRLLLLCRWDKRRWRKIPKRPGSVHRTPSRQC
Kindly state inhibition for each of the entries shown.
One number for each entry, in %.

INSERT INTO measurements (molecular_string, readout_type, reported_measurement) VALUES
  ('O=C1CCc2ccc(OCCCCN3CCN(c4cccc5c4ccn5S(=O)(=O)c4ccccc4)CC3)cc2N1', 'inhibition', 37);

Batch: inhibition for all items listed.
1. O=C1CCc2ccc(OCCCCN3CCN(c4cccc5c4ccn5Cc4cccc(F)c4)CC3)cc2N1
2. O=C1CCc2ccc(OCCCCN3CCN(c4cccc5c4ccn5Cc4ccccc4)CC3)cc2N1
3. O=C1CCc2ccc(OCCCCN3CCN(c4cccc5c4ccn5Cc4cccc(Cl)c4)CC3)cc2N1

[94, 99, 78]

###

Kindly state inhibition for each of the entries shown.
molecular target: 5-hydroxytryptamine receptor 6 (Homo sapiens, UniProt P50406); test: Agonist activity at human 5-HT6 receptor expressed in CHOK1 cells assessed as calcium mobilization at 1 uM by radiometric and luminescence plate counting method; format: functional, cell-based; details: CHO-K1
Sequence (P50406 whole entry): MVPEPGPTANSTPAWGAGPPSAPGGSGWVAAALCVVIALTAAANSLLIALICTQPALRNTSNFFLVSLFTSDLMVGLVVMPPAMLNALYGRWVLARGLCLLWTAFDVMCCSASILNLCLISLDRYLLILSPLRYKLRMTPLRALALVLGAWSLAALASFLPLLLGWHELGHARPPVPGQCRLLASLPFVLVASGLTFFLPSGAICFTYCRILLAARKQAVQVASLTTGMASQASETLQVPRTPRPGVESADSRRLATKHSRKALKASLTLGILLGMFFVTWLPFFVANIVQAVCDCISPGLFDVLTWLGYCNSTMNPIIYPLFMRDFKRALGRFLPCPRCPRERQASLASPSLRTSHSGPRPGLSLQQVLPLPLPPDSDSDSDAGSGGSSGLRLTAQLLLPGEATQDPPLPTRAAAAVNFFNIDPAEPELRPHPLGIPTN
One number for each entry, in %.

Sample records with inhibition:
INSERT INTO measurements (molecular_string, measurement_target, reported_measurement) VALUES
  ('O=C1CCc2ccc(OCCCCN3CCN(c4cccc5c4ccn5Cc4cccc(Cl)c4)CC3)cc2N1', '5-hydroxytryptamine receptor 6 (Homo sapiens, UniProt P50406)', 0),
  ('O=C1CCc2ccc(OCCCCN3CCN(c4cccc5c4ccn5Cc4cccc(F)c4)CC3)cc2N1', '5-hydroxytryptamine receptor 6 (Homo sapiens, UniProt P50406)', 0),
  ('O=C1CCc2ccc(OCCCCN3CCN(c4cccc5c4ccn5Cc4ccccc4)CC3)cc2N1', '5-hydroxytryptamine receptor 6 (Homo sapiens, UniProt P50406)', 0);

Can you look up the measured inhibition of O=C1CCc2ccc(OCCCCN3CCN(c4cccc5c4ccn5S(=O)(=O)c4ccccc4)CC3)cc2N1 for me? 0

###

Kindly state Ki for each of the entries shown.
molecular target: 5-hydroxytryptamine receptor 6 (Homo sapiens)
Answers are plain numbers, in nM.

Batch: Ki for all items listed.
1. O=C1CCc2ccc(OCCCCN3CCN(c4cccc5c4ccn5Cc4ccccc4F)CC3)cc2N1
2. O=S(=O)(c1ccccc1)n1ccc2c(N3CCN(CCCOc4ccc5ccoc5c4)CC3)cccc21
3. NC(=O)c1ccccc1OCCCN1CC=C(c2cn(S(=O)(=O)c3ccccc3)c3ccccc23)CC1
4. O=S(=O)(c1ccccc1)n1ccc2c(N3CCN(CCCOc4ccccc4)CC3)cccc21

45
3.8
33
7.6

Batch: Ki for all items listed.
1. O=C1CCc2ccc(OCCCCN3CC=C(c4cn(Cc5ccccc5)c5ccccc45)CC3)cc2N1
2. O=C1CCc2ccc(OCCCCN3CCC(c4cn(Cc5ccccc5)c5ccccc45)CC3)cc2N1
3. O=S(=O)(c1ccccc1)n1ccc2c(N3CCN(CCCCOc4ccccc4)CC3)cccc21

22
150
16

###

Target protein (sequence): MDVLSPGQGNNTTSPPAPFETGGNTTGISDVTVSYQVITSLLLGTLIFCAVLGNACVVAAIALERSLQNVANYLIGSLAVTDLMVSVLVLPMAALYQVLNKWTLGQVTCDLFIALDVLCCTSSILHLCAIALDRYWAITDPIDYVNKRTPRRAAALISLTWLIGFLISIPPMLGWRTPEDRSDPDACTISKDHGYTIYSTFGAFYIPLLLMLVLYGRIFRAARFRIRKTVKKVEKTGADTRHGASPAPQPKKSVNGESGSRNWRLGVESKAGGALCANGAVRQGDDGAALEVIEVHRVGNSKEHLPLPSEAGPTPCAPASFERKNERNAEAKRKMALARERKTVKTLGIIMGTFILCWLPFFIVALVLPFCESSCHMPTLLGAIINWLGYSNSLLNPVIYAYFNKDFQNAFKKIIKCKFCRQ
readout.type: pKi
Give bare numbers, as −log10 of the molar value.

Can you look up the measured pKi of NC(=O)c1ccccc1OCCCN1CCN(c2cccc3c2ccn3S(=O)(=O)c2ccccc2)CC1 for me? 8.17

###

target: D(2) dopamine receptor (Homo sapiens, UniProt P14416); test: biochemical
Sequence (P14416 whole entry): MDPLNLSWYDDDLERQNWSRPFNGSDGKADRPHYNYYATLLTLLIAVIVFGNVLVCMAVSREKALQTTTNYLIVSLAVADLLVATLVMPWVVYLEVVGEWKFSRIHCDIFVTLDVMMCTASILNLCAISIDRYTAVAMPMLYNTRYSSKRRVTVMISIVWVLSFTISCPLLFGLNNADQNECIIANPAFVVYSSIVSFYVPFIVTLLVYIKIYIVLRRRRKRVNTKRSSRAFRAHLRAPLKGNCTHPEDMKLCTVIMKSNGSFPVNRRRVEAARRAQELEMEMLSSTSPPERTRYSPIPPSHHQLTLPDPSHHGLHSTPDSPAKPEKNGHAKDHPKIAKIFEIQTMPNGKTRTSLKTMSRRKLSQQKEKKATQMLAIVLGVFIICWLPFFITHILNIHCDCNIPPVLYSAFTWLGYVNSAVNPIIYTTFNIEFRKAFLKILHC
Each record is given class 1 if its reported Ki is strictly below 80 nM. Records at or above 80 nM are given class 0.

Past entries and their recorded results:
INSERT INTO results (molecular_string, assigned_label) VALUES
  ('NC(=O)c1ccccc1OCCCN1CCN(c2cccc3c2ccn3Cc2ccc(F)cc2)CC1', 'class 1'),
  ('CC(C)Oc1ccccc1OCCCCN1CCN(c2cccc3c2ccn3S(=O)(=O)c2ccccc2)CC1', 'class 0'),
  ('O=C1CCc2ccc(OCCCCNCCc3cn(S(=O)(=O)c4ccccc4)c4ccccc34)cc2N1', 'class 0'),
  ('NC(=O)c1ccccc1OCCCN1CC=C(c2cn(S(=O)(=O)c3ccccc3)c3ccccc23)CC1', 'class 0');

Quick check: Ki of O=S(=O)(c1ccccc1)n1ccc2c(N3CCN(CCCOc4ccccc4)CC3)cccc21 under 80 nM? class 0

Proceed to O=C1CCc2ccc(OCCCCN3CCC(c4cn(Cc5ccccc5)c5ccccc45)CC3)cc2N1 class 1

Proceed to NC(=O)c1ccccc1OCCCN1CCC(c2cn(Cc3ccccc3)c3ccccc23)CC1 class 1

Proceed to NC(=O)c1ccccc1OCCCN1CCN(c2cccc3c2ccn3Cc2ccccc2)CC1 class 0

###

molecular target: 5-hydroxytryptamine receptor 2A (Homo sapiens)
Sequence (P28223 whole entry): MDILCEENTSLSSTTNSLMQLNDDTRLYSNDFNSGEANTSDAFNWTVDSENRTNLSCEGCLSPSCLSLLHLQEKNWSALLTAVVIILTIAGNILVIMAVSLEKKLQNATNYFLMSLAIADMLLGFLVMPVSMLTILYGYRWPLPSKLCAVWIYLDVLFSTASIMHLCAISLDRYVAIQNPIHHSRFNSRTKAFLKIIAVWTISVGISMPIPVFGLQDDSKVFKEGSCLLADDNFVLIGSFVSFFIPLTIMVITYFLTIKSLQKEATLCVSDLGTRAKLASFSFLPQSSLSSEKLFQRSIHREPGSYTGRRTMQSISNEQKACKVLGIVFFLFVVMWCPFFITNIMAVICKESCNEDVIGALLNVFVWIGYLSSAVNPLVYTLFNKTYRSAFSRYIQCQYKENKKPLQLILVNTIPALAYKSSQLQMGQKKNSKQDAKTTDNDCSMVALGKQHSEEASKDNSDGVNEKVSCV
readout.type: pKi
One number for each entry, as −log10 of the molar value.

Can you look up the measured pKi of NC(=O)c1ccccc1OCCCN1CCN(c2cccc3c2ccn3S(=O)(=O)c2ccccc2)CC1 for me? 7.54

###

target: Histamine H1 receptor (Homo sapiens, UniProt P35367)
Sequence (P35367 whole entry): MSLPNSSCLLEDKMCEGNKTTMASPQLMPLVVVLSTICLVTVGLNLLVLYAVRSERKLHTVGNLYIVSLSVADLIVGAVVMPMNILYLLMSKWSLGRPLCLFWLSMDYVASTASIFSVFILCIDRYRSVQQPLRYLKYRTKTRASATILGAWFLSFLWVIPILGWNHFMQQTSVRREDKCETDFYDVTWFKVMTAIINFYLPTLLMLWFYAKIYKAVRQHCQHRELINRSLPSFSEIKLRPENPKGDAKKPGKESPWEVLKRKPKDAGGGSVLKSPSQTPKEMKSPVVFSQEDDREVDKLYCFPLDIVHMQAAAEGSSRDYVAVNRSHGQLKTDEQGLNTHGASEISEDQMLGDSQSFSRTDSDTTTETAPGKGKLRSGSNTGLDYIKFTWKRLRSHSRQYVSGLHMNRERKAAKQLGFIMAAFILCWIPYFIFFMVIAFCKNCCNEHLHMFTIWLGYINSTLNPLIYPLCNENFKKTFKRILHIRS
readout.type: Ki
Just so you know, I need the unit written after the number.

Can you look up the measured Ki of NC(=O)c1ccccc1OCCCN1CCN(c2cccc3c2ccn3S(=O)(=O)c2ccccc2)CC1 for me? 160 nM

###

target: Alpha-2C adrenergic receptor (Homo sapiens, UniProt P18825)
Sequence (P18825 whole entry): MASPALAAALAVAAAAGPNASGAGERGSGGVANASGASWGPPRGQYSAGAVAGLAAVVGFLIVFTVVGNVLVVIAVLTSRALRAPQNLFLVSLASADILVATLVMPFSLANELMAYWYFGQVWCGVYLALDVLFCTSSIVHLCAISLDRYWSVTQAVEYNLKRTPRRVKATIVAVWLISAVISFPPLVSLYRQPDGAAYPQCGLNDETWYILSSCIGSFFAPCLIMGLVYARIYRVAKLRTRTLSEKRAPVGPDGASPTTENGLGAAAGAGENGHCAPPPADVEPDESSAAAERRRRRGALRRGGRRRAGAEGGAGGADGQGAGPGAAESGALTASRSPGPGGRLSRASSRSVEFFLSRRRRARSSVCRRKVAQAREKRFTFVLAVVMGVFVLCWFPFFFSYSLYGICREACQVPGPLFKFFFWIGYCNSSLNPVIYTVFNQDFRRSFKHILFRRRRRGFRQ
readout.type: pKi
Answers are plain numbers, as −log10 of the molar value.

Can you look up the measured pKi of NC(=O)c1ccccc1OCCCN1CCN(c2cccc3c2ccn3S(=O)(=O)c2ccccc2)CC1 for me? 6.72

###

target: D(2) dopamine receptor (Homo sapiens, UniProt P14416); test: Antagonist activity at human dopamine D2 receptor expressed in CHOK1 cells assessed as inhibition of apomorphine-induced calcium mobilization at 1 uM by radiometric and luminescence plate counting method; type: functional, cell-based; settings: CHO-K1
readout.type: inhibition (%)
Give bare numbers, in %.

INSERT INTO assay_data (molecular_string, reported_measurement) VALUES
  ('O=C1CCc2ccc(OCCCCN3CCN(c4cccc5c4ccn5Cc4cccc(Cl)c4)CC3)cc2N1', 99),
  ('O=C1CCc2ccc(OCCCCN3CCN(c4cccc5c4ccn5Cc4ccccc4)CC3)cc2N1', 97),
  ('O=C1CCc2ccc(OCCCCN3CCN(c4cccc5c4ccn5S(=O)(=O)c4ccccc4)CC3)cc2N1', 100);

What measured inhibition is associated with O=C1CCc2ccc(OCCCCN3CCN(c4cccc5c4ccn5Cc4cccc(F)c4)CC3)cc2N1 on D(2) dopamine receptor (Homo sapiens, UniProt P14416)? 99
